# assayExplanation: chemical genetic growth profiling, strain panel (AID 1159580);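 also: tested at 20 µM; growth read once vehicle control cultures reached saturation at 30 °C; 1 = growth at the plate median or of vehicle wells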
# reportedConditions: S. cerevisiae deletion strains, growth OD, locus YER133W, strain GLC7, stronger effect = lower value
About 2,000 (36%) of roughly 5,500 compounds were called active. About 18% were inconclusive and are not listed. The list shows a part of the results.
endpoint: normalized growth
Form field (numeric): enter value without unit.

What measured normalized growth goes with O=C(C=C(O)c1ccc(Br)cc1)C(=O)Nc1ccccc1 ? 0.229

Query: normalized growth; subject: CCC(C)c1ccccc1NC(=O)c1cc2cccc([N+](=O)[O-])c2[nH]1 (stereo not given) 0.893

Name the recorded normalized growth for Cc1c(Cl)cccc1NC(=S)N1CCCN(c2ccc(C(F)(F)F)cc2[N+](=O)[O-])CC1 . 0.969

I am curious: what normalized growth value has been reported for O=C(Nc1cc(Cl)cc(Cl)c1)Nc1cc(-c2cccs2)[nH]n1 ? 0.864

What measured normalized growth goes with Cc1cc(SCc2[nH]nc3oc(=O)cc(C)c23)c(Cl)cc1Cl ? 1.03

Recorded normalized growth of CC1=CC(=O)C(CCOCCC2=CC(=O)C(C)=CC2=O)=CC1=O , please. 0.765

Requested read-out: normalized growth. Entry: O=C(Nc1cc(Cl)cc(Cl)c1)Nc1cc(-c2ccco2)[nH]n1 0.269

Need normalized growth of O=C(CCN1CCCCC1)c1ccc(-c2ccccc2)cc1 , thanks. 0.961

Endpoint output: normalized growth of Cc1ccccc1C(=O)N1CCc2c([nH]c3ccccc23)C1C(F)(F)F (stereo not given) . Value? 0.948

Fill blank: measured normalized growth of the compound NC(N)=Nc1nc(-c2cc(Cl)sc2Cl)cs1 is ____. 0.905

Tell me the measured normalized growth of NCCCN=c1ccc2c3c1c(O)c1c(O)ccc(=O)c1c3[nH]n2CCNCCO , please. 0.977

What value of normalized growth has been reported for the following compound? C/C(=N/NC(N)=S)c1ccc(Oc2c(Cl)cncc2Cl)cc1 0.969

For the compound shown here, C=CC(=O)N1CCc2cc([N+](=O)[O-])ccc21 , give the reported normalized growth. 0.275

What value of normalized growth has been reported for the following compound? N#C/C(=N/Nc1ccccc1Cl)S(=O)(=O)c1ccc(Cl)cc1 0.909

Return reported normalized growth; argument: O=[N+]([O-])c1cc(C(F)(F)F)ccc1-n1ccc(-c2cccs2)n1 0.846

Quick check: normalized growth of N#C/C(=C\c1ccccc1Sc1ccc(Cl)cc1)S(=O)(=O)c1ccccn1 ? 0.909

I have this compound here, O=C(Oc1cc(Cl)c(Cl)cc1Cl)C1c2ccccc2Oc2ccccc21 , and I need its recorded normalized growth. 0.982

What does the data say about its normalized growth? Entry: O=C(Nc1c(Br)c(C2CC2)nn1-c1ccccc1)C(Cl)(Cl)Cl 0.802

What normalized growth value was documented for this compound, Cn1c([N+](=O)[O-])cnc1/C=C(\C#N)C(=O)Nc1ccc(F)cc1 ? 0.3

Fill in: normalized growth of S=C(Nc1cc(-c2cccs2)[nH]n1)Nc1ccccc1Cl is ___ 0.809

###

# assayExplanation: chemical genetic growth profiling, strain panel (AID 1159580);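 also: tested at 20 µM; growth read once vehicle control cultures reached saturation at 30 °C; 1 = growth at the plate median or of vehicle wells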
# reportedConditions: S. cerevisiae deletion strains, growth OD, locus YPL078C, strain atp4
Screen size: about 5,500 compounds; about 2,000 (36%) were called active. Inconclusive results (about 18%) are left out. No stated cut-off is given here; in the data, active means normalized growth mostly below about 0.91 (no sharp cut-off); inconclusive means no clear call, values can overlap the other calls; inactive means mostly above about 0.92. The list shows a part of the results.
Choose the fitting class; nothing outside active, inactive is accepted.

Recorded test call requested for CO[C@H]1C[C@H](O[C@H]2[C@H](C)[C@@H](OC3O[C@H](C)C[C@H](N(C)C)[C@H]3O)[C@@H](C)C[C@]3(CO3)C(=O)[C@H](C)[C@@H](O)[C@@H](C)[C@@H](C)OC(=O)[C@@H]2C)O[C@@H](C)[C@@H]1O (stereo partly specified) inactive

Test call, this compound: CCC1(c2ccc(N)cc2)CCC(=O)NC1=O (stereo unspecified) active

For this compound, state the assay outcome: CCC1(C)CC(=O)NC1=O (stereo unspecified) inactive

Dear all, I need the recorded test outcome for OCc1ccccc1O[C@@H]1O[C@H](CO)[C@@H](O)[C@H](O)[C@H]1O , thank you. inactive

Which outcome was entered for the compound C=C1CC[C@H](O)C/C1=C/C=C1\CCC[C@]2(C)C([C@H](C)/C=C/[C@H](C)C(C)C)CC[C@@H]12 (stereo partly specified) in this test? inactive

Just curious, what result did COc1ccc(C(=O)c2ccccc2)c(O)c1 get here? active

Please share the test call associated with COc1ccc2c(c1)C1(C)CCC(=O)CC1CC2 (stereo unspecified) . inactive

Status in this test for Cc1ccc2c(c1)CC[C@H]1CC(=O)CC[C@]21C ? inactive

Query: recorded result category for CCC1(c2ccccc2)C(=O)NCNC1=O in this test inactive

Fill in: this test's call for COc1cccc2c1CCC1CC(=O)CCC21C (stereo unspecified) is ___ inactive

What was the test verdict on COc1ccc2c(c1)[C@@]1(C)CCC(=O)C[C@H]1CC2 ? inactive
